Assay: Metabolic stability in Wistar rat liver microsomes incubated for 10 mins prior to NADPH addition measured after 60 mins by LC/MS/MS analysis
Format: ADME
Details: read-out: Stability
Threshold 50%. remaining at 1 h below it: Satisfied. remaining at 1 h at it or above: Not satisfied.

For orientation, consider the following solved cases.
Cn1cc(-c2cccc(Oc3nccc(-c4cncnc4)n3)c2)c2nc3ccccc3cc21 | Satisfied
Cn1cc(-c2cccc(Oc3nccc(N4CCOCC4)n3)c2)c2nc3ccccc3cc21 | Satisfied
Cn1cc(C2=CCC(Oc3nccnc3-c3cncnc3)CC2)c2ncccc21 (stereo not given) | Satisfied

Please look at the following compound next.
Does `Cn1cc(-c2ccc(Oc3ncccc3-c3ccncc3)cc2)c2ncc(Cl)cc21` have remaining at 1 h strictly under 50%?
Not satisfied

###

Biological target: cAMP and cAMP-inhibited cGMP 3',5'-cyclic phosphodiesterase 10A (Homo sapiens)
Sequence (Q9Y233 whole entry): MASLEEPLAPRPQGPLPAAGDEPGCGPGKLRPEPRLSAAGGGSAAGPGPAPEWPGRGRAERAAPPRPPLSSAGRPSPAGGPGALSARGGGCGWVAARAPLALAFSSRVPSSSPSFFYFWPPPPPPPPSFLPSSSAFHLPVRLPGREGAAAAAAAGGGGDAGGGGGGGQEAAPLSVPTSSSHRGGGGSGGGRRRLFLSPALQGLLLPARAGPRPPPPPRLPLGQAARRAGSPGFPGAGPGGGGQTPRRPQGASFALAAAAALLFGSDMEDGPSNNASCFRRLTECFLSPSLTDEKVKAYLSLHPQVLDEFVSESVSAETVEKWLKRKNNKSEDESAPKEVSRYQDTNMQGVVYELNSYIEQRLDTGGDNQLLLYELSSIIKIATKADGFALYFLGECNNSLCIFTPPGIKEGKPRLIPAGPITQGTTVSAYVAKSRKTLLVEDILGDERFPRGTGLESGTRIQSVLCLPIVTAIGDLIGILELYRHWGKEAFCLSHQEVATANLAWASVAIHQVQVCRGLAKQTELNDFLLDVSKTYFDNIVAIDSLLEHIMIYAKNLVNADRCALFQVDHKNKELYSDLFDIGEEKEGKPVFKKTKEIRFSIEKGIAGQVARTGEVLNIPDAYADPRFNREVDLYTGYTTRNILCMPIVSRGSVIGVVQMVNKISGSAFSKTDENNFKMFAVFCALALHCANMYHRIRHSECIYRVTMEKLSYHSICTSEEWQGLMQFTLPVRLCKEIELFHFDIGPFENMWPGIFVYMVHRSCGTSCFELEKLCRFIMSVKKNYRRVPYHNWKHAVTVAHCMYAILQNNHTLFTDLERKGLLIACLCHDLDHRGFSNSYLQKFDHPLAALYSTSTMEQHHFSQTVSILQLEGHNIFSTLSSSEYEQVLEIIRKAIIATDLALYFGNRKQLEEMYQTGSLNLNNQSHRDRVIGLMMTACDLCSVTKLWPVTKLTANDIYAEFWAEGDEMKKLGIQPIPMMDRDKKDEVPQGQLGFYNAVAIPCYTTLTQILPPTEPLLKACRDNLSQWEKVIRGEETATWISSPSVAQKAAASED
Experiment: Inhibition of human recombinant GST-tagged PDE10A using [3H]-cAMP as substrate after 30 mins by scintillation proximity assay
Measured pIC50 of individual entries
Convention used: pIC50 is expressed as -log10 of the molar concentration.

Below are worked cases with known answers.
Cn1cc(-c2cccc(Oc3nccnc3-c3cncnc3)c2)c2nc3ccccc3cc21 | 6.57
Cc1cnc2c(-c3ccc(Oc4ncccc4-c4ccncc4)cc3)cn(C)c2c1 | 9.52
Cn1cc(C2CCC(Oc3nccnc3-c3cncnc3)CC2)c2ncccc21 (stereo not given) | 6.26
Cn1cc(-c2cccc(Oc3nccc(-c4cncnc4)n3)c2)c2nc3ccccc3cc21 | 7.74

// below: pIC50 requested for another compound
State the recorded pIC50 for this entry: `Cn1cc(-c2ccc(Oc3nccnc3-c3ccncc3)cc2)c2ncc(Cl)cc21`
7.15

###

Biological target: cAMP and cAMP-inhibited cGMP 3',5'-cyclic phosphodiesterase 10A (Rattus norvegicus, UniProt Q9QYJ6)
Sequence (Q9QYJ6 whole entry): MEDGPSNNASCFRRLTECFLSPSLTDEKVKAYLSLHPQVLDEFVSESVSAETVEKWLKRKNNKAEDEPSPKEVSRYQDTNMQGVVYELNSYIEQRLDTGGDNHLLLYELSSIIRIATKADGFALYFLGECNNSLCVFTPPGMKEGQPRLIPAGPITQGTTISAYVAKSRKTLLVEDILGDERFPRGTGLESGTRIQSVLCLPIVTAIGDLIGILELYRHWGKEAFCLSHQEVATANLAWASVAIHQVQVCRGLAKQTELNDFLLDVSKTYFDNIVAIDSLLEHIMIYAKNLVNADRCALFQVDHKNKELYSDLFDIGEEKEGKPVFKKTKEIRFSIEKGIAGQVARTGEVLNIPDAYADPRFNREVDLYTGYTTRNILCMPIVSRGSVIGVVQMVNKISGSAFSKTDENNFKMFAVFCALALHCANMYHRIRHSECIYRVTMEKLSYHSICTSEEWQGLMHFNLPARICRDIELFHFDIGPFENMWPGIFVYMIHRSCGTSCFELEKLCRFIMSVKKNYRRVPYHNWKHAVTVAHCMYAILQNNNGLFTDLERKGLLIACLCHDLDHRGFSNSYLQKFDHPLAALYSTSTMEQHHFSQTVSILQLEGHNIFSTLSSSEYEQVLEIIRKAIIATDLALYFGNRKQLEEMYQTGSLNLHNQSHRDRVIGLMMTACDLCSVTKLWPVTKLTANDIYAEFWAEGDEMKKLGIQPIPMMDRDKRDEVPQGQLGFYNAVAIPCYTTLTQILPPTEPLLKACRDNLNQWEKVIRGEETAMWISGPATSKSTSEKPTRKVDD
Assay: Inhibition of rat recombinant GST-tagged PDE10A using [3H]-cAMP as substrate by scintillation proximity assay
measuredProperty: pIC50
Scale: negative log10 of molar concentration, which is what pIC50 denotes.

Cn1cc(-c2cccc(Oc3nccc(-c4cncnc4)n3)c2)c2nc3ccccc3cc21 | 7.04
Cn1cc(C2CCC(Oc3nccnc3-c3cncnc3)CC2)c2ncccc21 (stereo not given) | 6.43
Cn1cc(-c2ccc(Oc3ncccc3-c3ccncc3)cc2)c2ncc(Cl)cc21 | 8.15
Cc1cnc2c(-c3ccc(Oc4ncccc4-c4ccncc4)cc3)cn(C)c2c1 | 9.10
Cn1cc(C2=CCC(Oc3nccnc3-c3cncnc3)CC2)c2ncccc21 (stereo not given) | 6.26

May I ask what pIC50 has been recorded for `Cn1cc(-c2ccc(Oc3ncccc3-c3ccncc3)cc2)c2ncccc21` ?
8.24

`Cn1cc(-c2ccc(Oc3nccnc3-c3ccncc3)cc2)c2nc3ccccc3cc21` ?
7.53

Again, but for `COc1ccc(-c2nccnc2Oc2ccc(-c3cn(C)c4cc5ccccc5nc34)cc2)cc1`
6.88

Same lookup for `Cn1cc(-c2ccc(Oc3nccnc3-c3ccncc3)cc2)c2ncccc21` , please.
7.79

Also `Cn1cc(-c2ccc(Oc3nccnc3-c3cncnc3)cc2)c2nc3ccccc3cc21` , if possible.
7.51

###

Target: cGMP-dependent 3',5'-cyclic phosphodiesterase (Homo sapiens)
Experiment: Inhibition of human recombinant PDE2A using cAMP as substrate at 10 uM after 30 mins by HTRF method
Classification scheme (inhibition): low bracket = under 30%, middle bracket = from 30% up to 40%, high bracket = 40% and over

Example results:
Cn1cc(-c2ccc(Oc3nccnc3-c3ccncc3)cc2)c2nc3ccccc3cc21 | middle bracket
Cc1cnc2c(-c3ccc(Oc4ncccc4-c4ccncc4)cc3)cn(C)c2c1 | high bracket
Cn1cc(-c2cccc(Oc3nccc(-c4cncnc4)n3)c2)c2nc3ccccc3cc21 | middle bracket
Cn1cc(-c2cccc(Oc3nccc(N4CCOCC4)n3)c2)c2nc3ccccc3cc21 | high bracket
Cn1cc(-c2ccc(Oc3nccnc3-c3ccncc3)cc2)c2ncc(Cl)cc21 | low bracket

For this compound, which bin applies? `Cn1cc(-c2ccc(Oc3nccnc3-c3ccncc3)cc2)c2ncccc21`
high bracket

And `Cn1cc(-c2ccc(Oc3ncccc3-c3ccncc3)cc2)c2ncc(Cl)cc21` ?
low bracket

Follow-up item: `Cn1cc(-c2ccc(Oc3ncccc3-c3ccncc3)cc2)c2ncccc21`
high bracket

What about `Cn1cc(-c2ccc(Oc3nccnc3-c3cncnc3)cc2)c2nc3ccccc3cc21` ?
low bracket
